Values from patent US12157730B2

Target: Ba/F3 cell EGFR Exon20 ins NPH (Homo sapiens, UniProt P00533, INS773NPH)
Construct: expressed in transfected cells; host or cells: Ba/F3
Assay: Ba/F3 cell proliferation suppression, EGFR Exon20 ins NPH
Assay type: cell-based
Conditions: GI50 class; Ba/F3 cell line with NPH inserted at Exon20 of EGFR; 72 hours
parameter: Ba/F3 (NPH) Activity

INSERT INTO measurements (smi, parameter, val) VALUES
  ('C=CC(=O)Nc1cc(Nc2cc(N3OCC[C@@H]3c3cccc(C)c3F)ncn2)c(OC)cc1N(C)CCN(C)C', 'Ba/F3 (NPH) Activity', 'A (GI50 < 50 nM)'),
  ('C=CC(=O)Nc1cc(Nc2cc(N3OCC[C@@H]3c3cccc(Cl)c3)ncn2)c(OC)cc1N1CCC(N2CCN(C3COC3)CC2)CC1', 'Ba/F3 (NPH) Activity', 'A (GI50 < 50 nM)'),
  ('C=CC(=O)Nc1cc(Nc2cc(N3OCC[C@@H]3Cc3cccc(Cl)c3Cl)ncn2)c(OC)cc1N1CCC(N2CCN(C(C)C)CC2)CC1', 'Ba/F3 (NPH) Activity', 'A (GI50 < 50 nM)');
